Each recorded value in this set is attributed to the RNAGym collection of RNA variant scans (doi:10.7554/elife.90254).

B1: LINE1-full (parent)
chain: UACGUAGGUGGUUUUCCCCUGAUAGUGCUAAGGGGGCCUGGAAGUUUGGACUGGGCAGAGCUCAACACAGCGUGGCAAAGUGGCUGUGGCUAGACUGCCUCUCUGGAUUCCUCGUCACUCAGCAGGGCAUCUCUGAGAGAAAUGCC

Variants of: B1
Method Notes: self-cleavage, relative activity (ratio to wild type); higher = more cleavage; in vitro, sequencing; the parent is a self-cleaving ribozyme
Rule: self-cleavage under 0.6 gives not satisfied, otherwise satisfied.

Answered examples (5):
Variant | Classification
U91A U115C | satisfied
A57U U132A | not satisfied
A69U A121G | not satisfied
A42U U102C | satisfied
A59G C95A | not satisfied

Textbook exercise: given the entry U9A U52A , state whether its self-cleavage is greater than or equal to 0.6. satisfied

Can U47C U96C be said to have self-cleavage at or above 0.6? not satisfied
